# Experimental target: Serine/threonine-protein kinase 4 (Homo sapiens, UniProt Q13043); note: in the data inactive means no Kd found up to 30 µM
# Sequence (Q13043 whole entry): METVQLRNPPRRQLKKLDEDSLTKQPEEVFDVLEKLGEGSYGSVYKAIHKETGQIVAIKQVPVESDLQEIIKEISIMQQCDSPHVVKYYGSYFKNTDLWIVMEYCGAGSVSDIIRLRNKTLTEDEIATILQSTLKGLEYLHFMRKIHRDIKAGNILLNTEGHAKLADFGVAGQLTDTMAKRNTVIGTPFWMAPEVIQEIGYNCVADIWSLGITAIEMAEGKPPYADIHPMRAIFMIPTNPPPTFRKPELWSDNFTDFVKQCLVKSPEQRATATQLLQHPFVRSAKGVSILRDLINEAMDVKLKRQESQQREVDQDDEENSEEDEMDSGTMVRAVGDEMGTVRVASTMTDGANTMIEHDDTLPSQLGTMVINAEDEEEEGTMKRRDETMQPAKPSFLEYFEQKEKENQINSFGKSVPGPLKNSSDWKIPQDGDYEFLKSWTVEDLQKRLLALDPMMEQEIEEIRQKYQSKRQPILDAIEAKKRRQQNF
Counter-ions that a name gives are not always drawn. Active and inactive are the calls of the source.
Pick one and only one: YES = active, NO = inactive

Consider the following illustrative entries.
1) NC1(c2ccc(-c3nc4ccn5c(=O)[nH]nc5c4cc3-c3ccccc3)cc2)CCC1	NO
2) CN1CCN(CCOc2cc(OC3CCOCC3)c3c(Nc4c(Cl)ccc5c4OCO5)ncnc3c2)CC1	NO
3) Cc1nc2cc(-n3ncc(C(=O)c4cc5ccccc5[nH]4)c3N)ccc2[nH]1	NO
4) N#CC1(c2ccc(NC(=O)c3cccnc3NCc3ccncc3)cc2)CCCC1	NO
5) Cn1cc(-c2cnn3c(N)c(Br)c([C@@H]4CCCNC4)nc23)cn1	NO
6) C=CC(=O)Nc1cc2c(Nc3ccc(F)c(Cl)c3)ncnc2cc1C#CC(C)(C)N1CCN(C)CC1 [AV-412 FREE BASE]	NO

Please indicate how the test categorized CCS(=O)(=O)N1CCN(c2ccc(Nc3ncc(C(N)=O)c(NC4CC4)n3)cc2)CC1 [Cerdulatinib Hydrochloride] .
YES

Returns: the outcome recorded for `CN1C/C=C/CCOc2cccc(c2)-c2ccnc(n2)Nc2cccc(c2)C1` in this assay.
YES

Hello, I am checking results. What call was entered for `O=C(Cc1ccc(-c2ccc(OCCN3CCOCC3)cc2)cn1)NCc1ccccc1` ?
NO

###

# Experimental target: AP2-associated protein kinase 1 (Homo sapiens, UniProt Q2M2I8); note: in the data inactive means no Kd found up to 30 µM
# Sequence (Q2M2I8 whole entry): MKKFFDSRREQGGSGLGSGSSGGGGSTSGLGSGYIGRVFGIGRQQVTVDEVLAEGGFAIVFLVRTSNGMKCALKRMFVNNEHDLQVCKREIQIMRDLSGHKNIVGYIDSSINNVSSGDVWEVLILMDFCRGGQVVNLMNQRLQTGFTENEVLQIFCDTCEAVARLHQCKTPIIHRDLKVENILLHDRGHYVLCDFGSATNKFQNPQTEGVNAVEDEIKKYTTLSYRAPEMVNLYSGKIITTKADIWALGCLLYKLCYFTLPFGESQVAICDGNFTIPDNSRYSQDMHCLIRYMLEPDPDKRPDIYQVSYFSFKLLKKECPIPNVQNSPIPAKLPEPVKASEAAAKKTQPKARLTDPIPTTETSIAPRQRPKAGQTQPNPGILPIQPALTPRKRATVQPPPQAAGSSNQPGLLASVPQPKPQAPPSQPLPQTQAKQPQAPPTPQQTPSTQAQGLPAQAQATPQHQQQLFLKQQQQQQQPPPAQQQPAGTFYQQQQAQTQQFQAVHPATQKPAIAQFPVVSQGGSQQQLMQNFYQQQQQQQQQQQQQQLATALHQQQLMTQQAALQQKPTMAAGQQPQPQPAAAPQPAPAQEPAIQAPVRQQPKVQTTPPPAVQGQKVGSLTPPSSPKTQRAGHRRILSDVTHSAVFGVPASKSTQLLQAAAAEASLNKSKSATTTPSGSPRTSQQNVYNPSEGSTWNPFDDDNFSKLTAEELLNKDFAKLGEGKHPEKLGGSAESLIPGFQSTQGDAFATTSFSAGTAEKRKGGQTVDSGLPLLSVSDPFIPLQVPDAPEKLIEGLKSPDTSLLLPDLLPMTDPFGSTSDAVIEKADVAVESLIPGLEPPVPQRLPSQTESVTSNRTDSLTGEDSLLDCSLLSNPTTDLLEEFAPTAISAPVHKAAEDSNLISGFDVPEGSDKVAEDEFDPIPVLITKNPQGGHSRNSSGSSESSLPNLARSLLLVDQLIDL
Activity calls are given as the source filed them.
Returns: one label drawn from active, inactive

1. CC(C)(C)c1nc(-c2cccc(NS(=O)(=O)c3c(F)cccc3F)c2F)c(-c2ccnc(N)n2)s1 [DABRAFENIB]	inactive

Tell me the assay call for Cc1nc(Nc2n[nH]c3c2CN(C(=O)N[C@H](CN(C)C)c2ccccc2)C3(C)C)c2sccc2n1 [PF-03758309] please.
active

Look up the recorded call for O=C1NC(=O)[C@@H](c2cn3c4c(cccc24)CCC3)[C@@H]1c1c[nH]c2ccccc12 [TIVANTINIB] in this test.
inactive

Short answer needed: outcome of this test for CNC(=O)c1cccc2cc(Oc3ccnc4cc(OCC5(N)CC5)c(OC)cc34)ccc12 [LUCITANIB] ?
inactive

###

# Experimental target: Discoidin domain-containing receptor 2 (Homo sapiens, UniProt Q16832); note: in the data inactive means no Kd found up to 30 µM
# Sequence (Q16832 whole entry, the tested form may be a part): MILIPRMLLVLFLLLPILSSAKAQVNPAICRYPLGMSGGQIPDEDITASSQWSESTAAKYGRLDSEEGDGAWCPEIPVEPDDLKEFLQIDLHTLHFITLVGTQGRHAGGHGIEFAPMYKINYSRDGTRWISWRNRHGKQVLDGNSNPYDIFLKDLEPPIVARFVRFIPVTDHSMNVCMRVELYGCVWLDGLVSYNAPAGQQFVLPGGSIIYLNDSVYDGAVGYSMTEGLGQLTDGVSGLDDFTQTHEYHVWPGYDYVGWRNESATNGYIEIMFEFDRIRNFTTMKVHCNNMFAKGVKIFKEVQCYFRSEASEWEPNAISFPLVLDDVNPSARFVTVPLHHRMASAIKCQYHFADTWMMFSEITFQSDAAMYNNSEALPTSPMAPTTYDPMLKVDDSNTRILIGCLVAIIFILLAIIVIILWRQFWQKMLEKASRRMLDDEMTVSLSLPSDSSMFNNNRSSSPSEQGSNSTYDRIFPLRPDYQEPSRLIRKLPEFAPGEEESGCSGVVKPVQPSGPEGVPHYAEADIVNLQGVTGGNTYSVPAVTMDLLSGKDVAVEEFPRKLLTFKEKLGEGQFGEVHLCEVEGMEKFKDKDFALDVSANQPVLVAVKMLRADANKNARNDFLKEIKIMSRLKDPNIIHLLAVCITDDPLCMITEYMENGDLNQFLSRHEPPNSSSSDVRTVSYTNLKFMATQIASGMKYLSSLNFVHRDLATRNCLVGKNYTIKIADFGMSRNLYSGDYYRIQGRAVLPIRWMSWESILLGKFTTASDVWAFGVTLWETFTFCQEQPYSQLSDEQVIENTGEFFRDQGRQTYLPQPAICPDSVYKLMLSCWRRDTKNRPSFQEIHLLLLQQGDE
Where a name gives a salt, the structure may show the parent alone. Calls of active or inactive are those of the source.
Give your call using only these classes: active, inactive

As a guide, the following entries are already answered.
1) CCn1cc(-c2ccnc3[nH]c(-c4cccc(CN(C)C)c4)cc23)c(-c2ccc(NC(=O)N(C)C)cc2)n1	active
2) C#Cc1cccc(Nc2ncnc3cc(OC)c(OCCCCCCC(=O)NO)cc23)c1	inactive
3) O=C(Cc1ccc(-c2ccc(OCCN3CCOCC3)cc2)cn1)NCc1ccccc1	inactive

Could you kindly confirm the outcome this assay logged for `Cc1cc(Nc2ncc(Cl)c(Nc3ccccc3S(=O)(=O)C(C)C)n2)c(OC(C)C)cc1C1CCNCC1` ?
inactive

Which outcome was assigned to `Cc1nc(NC(=O)N2CCC[C@H]2C(N)=O)sc1-c1ccnc(C(C)(C)C(F)(F)F)c1` in this test?
inactive

Name the outcome recorded for `C[C@@H](N)c1ccc(C(=O)Nc2ccnc3[nH]ccc23)cc1` in the assay.
inactive

Can you look up the reported call for CCS(=O)(=O)N1CCN(c2ccc(Nc3ncc(C(N)=O)c(NC4CC4)n3)cc2)CC1 [Cerdulatinib Hydrochloride] for me?
inactive
